Source listed as patent US9376694B2.

System: ω-transaminase derived from Ochrobactrum anthropi
protocol description: Substrate specificity of purified ω-transaminase for keto acids in initial stage of reaction, OawTA
Assay type: biochemical
Design: unit not given here
details: 20 mM keto acid, 20 mM (S)-α-methylbenzylamine, pH 7.0, 37° C., 10 minutes
amount of produced acetophenone, OawTA strictly under 0.2 means Met; at 0.2 or over means Not met.

Prompt: Determine if CCCC(=O)C(=O)O [2-Oxopentanoic acid] shows amount of produced acetophenone, OawTA strictly lower than 0.2.
Response: Not met

Prompt: Determine if O=C(O)C(=O)CF [Fluoropyruvate] shows amount of produced acetophenone, OawTA strictly lower than 0.2.
Response: Not met

Prompt: Determine if CCCCC(=O)C(=O)O [2-Oxohexanoic acid] shows amount of produced acetophenone, OawTA strictly lower than 0.2.
Response: Met

Prompt: Determine if CCC(=O)C(=O)O [2-Oxobutyrate] shows amount of produced acetophenone, OawTA strictly lower than 0.2.
Response: Met

Prompt: Determine if CC(C)CC(=O)C(=O)O [4-Methyl-2-oxopentanoic acid] shows amount of produced acetophenone, OawTA strictly lower than 0.2.
Response: Met

Prompt: Determine if O=C(O)C(=O)CS [Mercaptopyruvate] shows amount of produced acetophenone, OawTA strictly lower than 0.2.
Response: Met

Prompt: Determine if O=CC(=O)O [Gyloxylate] shows amount of produced acetophenone, OawTA strictly lower than 0.2.
Response: Not met

Prompt: Determine if O=C(O)C(=O)CO [β-Hydroxypyruvate] shows amount of produced acetophenone, OawTA strictly lower than 0.2.
Response: Met
